PROTOCOL_NOTES: Cytotoxicity against mouse embryo fibroblasts
Type: cell-based
CONDITION_SET: fibroblast
PARAMETER: Activity

SMI: CCN(Cc1cccc(C(=O)N(Cc2ccc(CCC(=O)O)cc2)C(C)C)c1)C(=O)c1ccccc1
REPORTED: Non-toxic

SMI: CCN(Cc1ccc(C(=O)N(CC)Cc2ccc(CCC(=O)O)cc2)cc1)C(=O)c1ccccc1
REPORTED: Non-toxic

SMI: CCN(Cc1cccc(C(=O)N(CC)Cc2ccc(CCC(=O)O)cc2)c1)C(=O)c1ccccc1
REPORTED: Non-toxic

SMI: O=C(O)CCc1ccc(CNC(=O)c2cccc(CNC(=O)c3ccccc3)c2)cc1
REPORTED: Non-toxic

SMI: CC(C)N(Cc1cccc(C(=O)N(Cc2ccc(CCC(=O)O)cc2)C(C)C)c1)C(=O)c1ccccc1
REPORTED: Non-toxic

SMI: CCN(Cc1ccc(C(=O)N(Cc2ccc(CCC(=O)O)cc2)C(C)C)cc1)C(=O)c1ccccc1
REPORTED: Non-toxic

SMI: O=C(O)CCc1ccc(CNC(=O)c2ccc(CNC(=O)c3ccccc3)cc2)cc1
REPORTED: Non-toxic

SMI: CCN(Cc1ccc(CCC(=O)O)cc1)C(=O)c1cccc(CNC(=O)c2ccccc2)c1
REPORTED: Non-toxic

SMI: CC(C)N(Cc1cccc(C(=O)NCc2ccc(CCC(=O)O)cc2)c1)C(=O)c1ccccc1
REPORTED: Non-toxic

SMI: CCN(Cc1cccc(C(=O)NCc2ccc(CCC(=O)O)cc2)c1)C(=O)c1ccccc1
REPORTED: Non-toxic

SMI: CC(C)N(Cc1ccc(CCC(=O)O)cc1)C(=O)c1ccc(CNC(=O)c2ccccc2)cc1
REPORTED: Non-toxic

SMI: CCN(Cc1ccc(CCC(=O)O)cc1)C(=O)c1ccc(CN(C(=O)c2ccccc2)C(C)C)cc1
REPORTED: Non-toxic

SMI: CC(C)N(Cc1ccc(C(=O)NCc2ccc(CCC(=O)O)cc2)cc1)C(=O)c1ccccc1
REPORTED: Non-toxic

SMI: CC(C)N(Cc1ccc(CCC(=O)O)cc1)C(=O)c1cccc(CNC(=O)c2ccccc2)c1
REPORTED: Non-toxic

SMI: CCN(Cc1ccc(C(=O)NCc2ccc(CCC(=O)O)cc2)cc1)C(=O)c1ccccc1
REPORTED: Non-toxic

SMI: CC(C)N(Cc1ccc(C(=O)N(Cc2ccc(CCC(=O)O)cc2)C(C)C)cc1)C(=O)c1ccccc1
REPORTED: Non-toxic

SMI: CCN(Cc1ccc(CCC(=O)O)cc1)C(=O)c1cccc(CN(C(=O)c2ccccc2)C(C)C)c1
REPORTED: Non-toxic

SMI: CCN(Cc1ccc(CCC(=O)O)cc1)C(=O)c1ccc(CNC(=O)c2ccccc2)cc1
REPORTED: Non-toxic

###

TARGET_UNDER_TEST: Peroxisome proliferator-activated receptor gamma (Homo sapiens)
PROTOCOL_NOTES: Transactivation of human PPARgamma LBD transfected in mouse embryo fibroblasts at 100 uM after 18 hrs by Gal4-responsive luciferase reporter gene assay relative to rosiglitazone
Listing of recorded Activity by entry.
PARAMETER: Activity (%)

SMI: CCN(Cc1cccc(C(=O)NCc2ccc(CCC(=O)O)cc2)c1)C(=O)c1ccccc1
REPORTED: 23.5

SMI: CC(C)N(Cc1cccc(C(=O)NCc2ccc(CCC(=O)O)cc2)c1)C(=O)c1ccccc1
REPORTED: 18.4

SMI: CCN(Cc1cccc(C(=O)N(Cc2ccc(CCC(=O)O)cc2)C(C)C)c1)C(=O)c1ccccc1
REPORTED: 11.8

SMI: O=C(O)CCc1ccc(CNC(=O)c2cccc(CNC(=O)c3ccccc3)c2)cc1
REPORTED: 14.1

SMI: CCN(Cc1ccc(C(=O)N(Cc2ccc(CCC(=O)O)cc2)C(C)C)cc1)C(=O)c1ccccc1
REPORTED: 11.6

SMI: CCN(Cc1ccc(CCC(=O)O)cc1)C(=O)c1cccc(CNC(=O)c2ccccc2)c1
REPORTED: 15.1

SMI: CCN(Cc1ccc(CCC(=O)O)cc1)C(=O)c1ccc(CNC(=O)c2ccccc2)cc1
REPORTED: 11.8

SMI: O=C(O)CCc1ccc(CNC(=O)c2ccc(CNC(=O)c3ccccc3)cc2)cc1
REPORTED: 5.4

SMI: CCN(Cc1ccc(CCC(=O)O)cc1)C(=O)c1cccc(CN(C(=O)c2ccccc2)C(C)C)c1
REPORTED: 11.6
